# Test system: Rattus norvegicus
# ASSAY_NAME: Antiallergic property in passive cutaneous anaphylaxis (PCA) test in rats upon oral administration
# Type: functional
PROPERTY_NAME: log10(ED50) (log10 of the value in mg/kg)
Reminder: these figures are log10 of reported ED50, in mg/kg before transformation.

Recorded log10(ED50), per entry:
Ask | Quick one: log10(ED50) of "CCCNc1cccc(NC(=O)C(=O)OCC)c1C#N" ?
Reply | -0.15

Ask | Any idea what its log10(ED50) is? The compound is "CCOC(=O)C(=O)Nc1cccc([N+](=O)[O-])c1C#N"
Reply | 1.91

Ask | Param item = "CCOC(=O)C(=O)Nc1ccccc1C#N" ; retrieve measured log10(ED50).
Reply | 0.46

Ask | Quick check: log10(ED50) of "CCOC(=O)C(=O)Nc1cccc(N2CCOCC2)c1C#N" ?
Reply | 0.80

Could you now consider this next compound?
Ask | What value of log10(ED50) has been recorded for this entry: "CCOC(=O)C(=O)Nc1cccc(C(=O)OC)c1C#N"
Reply | -0.10

---

# Tested on: Rattus norvegicus
# ASSAY_NAME: Antiallergic property in passive cutaneous anaphylaxis (PCA) test in rats upon intraperitoneal administration
# Format: functional
# EXPERIMENTAL_PARAMETERS: ip
PROPERTY_NAME: log10 ED50 (log10 of the value in mg/kg)
Please interpret these as log10 of ED50 where ED50 is in mg/kg.

Ask | Write down the reported log10 ED50 of "CCOC(=O)C(=O)Nc1cccc(NC)c1C#N" , test system: Rattus norvegicus.
Reply | -0.70

Others:
Ask | // map "CCCCNc1cccc(NC(=O)C(=O)OCC)c1C#N" to recorded log10 ED50 (system: Rattus norvegicus)
Reply | -0.52

Ask | Report log10 ED50 for "CCOC(=O)C(=O)Nc1cccc(N2CCOCC2)c1C#N" tested on Rattus norvegicus.
Reply | 0.08

Ask | Item: "CCOC(=O)C(=O)Nc1cccc(N2CCN(C)CC2)c1C#N.Cl" Test system: Rattus norvegicus Read-out: log10 ED50 Value: ?
Reply | -1.40

Ask | API: value(readout= log10 ED50, system= Rattus norvegicus, query= "CCOC(=O)C(=O)Nc1cccc(N)c1C#N" )
Reply | -1.30

Ask | Quick check: log10 ED50 on Rattus norvegicus, item "CCOC(=O)C(=O)Nc1cccc(OC(C)C)c1C#N" ?
Reply | 0.30

---

# System: Rattus norvegicus
# ASSAY_NAME: Antiallergic property in passive cutaneous anaphylaxis (PCA) test in rats upon oral administration
# Type: functional
Listing: ED50 of selected molecules
Use mg/kg as the unit, but write only the number.

Ask | If you can, please state the reported ED50 value of "CCOC(=O)C(=O)Nc1cccc(N(CC)CC)c1C#N" .
Reply | 0.9

Ask | // query ED50 value for entry "CCNc1cccc(NC(=O)C(=O)OCC)c1C#N"
Reply | 0.03

Ask | Looking for the measured ED50 of "CCOC(=O)C(=O)Nc1ccc(N(C)C)cc1C#N" , can you help?
Reply | 2.4

Ask | So what's the measured ED50 for this one? "CCOC(=O)C(=O)Nc1cccc(NC)c1C#N"
Reply | 0.1

Ask | Dear colleague, I am looking for the recorded ED50 of the following molecule: "CNc1cccc(NC(=O)C(=O)[O-])c1C#N.[Na+]"
Reply | 0.07

Further cases:
Ask | Recorded ED50 for "CCOC(=O)C(=O)Nc1ccc(N)cc1C#N" , please?
Reply | 8.8

Ask | Which value of ED50 has been reported for "CCOC(=O)C(=O)Nc1cccc(N2CCN(C)CC2)c1C#N.Cl" in the records?
Reply | 10.3

Ask | Which ED50 is reported for this molecule? "CCOC(=O)C(=O)Nc1cccc(N(C)C)c1C#N"
Reply | 4.2

Ask | Which ED50 is listed for "CCOC(=O)C(=O)Nc1cccc(C)c1C#N" ?
Reply | 4.6

---

# Tested on: Rattus norvegicus
# ASSAY_NAME: Antiallergic property in passive cutaneous anaphylaxis (PCA) test in rats upon oral administration
# Assay type: functional
PROPERTY_NAME: log10 of ED50 (log10 of the value in mg/kg)
Response schema: value (number) is log10 of ED50 in units of mg/kg.

Example results:
Ask | Request the reported log10 of ED50 associated with "CCCCNc1cccc(NC(=O)C(=O)OCC)c1C#N"
Reply | -0.52

Ask | Query (compound): "CCOC(=O)C(=O)Nc1cccc(N(C)CC)c1C#N" ; field requested: log10 of ED50
Reply | -0.30

Ask | Fill blank: measured log10 of ED50 of the compound "CCOC(=O)C(=O)Nc1cccc(F)c1C#N" is ____.
Reply | 1.77

Ask | What log10 of ED50 value was documented for this compound, "CCOC(=O)C(=O)Nc1cccc(OC)c1C#N" ?
Reply | 1.74

Ask | Which log10 of ED50 is reported for this compound? "CCOC(=O)C(=O)Nc1cccc(N)c1C#N"
Reply | -1.15

More entries:
Ask | Look up log10 of ED50 for this compound: "CCOC(=O)C(=O)Nc1cccc(OC(C)C)c1C#N"
Reply | 0.00

Ask | Item under review: "CCOC(=O)C(=O)Nc1cccc(N(C)C(C)C)c1C#N" . Reported log10 of ED50?
Reply | 0.08

---

In this section we review reported log10 ED50 values for a set of compounds.
# Test system: Rattus norvegicus
# ASSAY_NAME: Antiallergic property in passive cutaneous anaphylaxis (PCA) test in rats upon intraperitoneal administration
# Assay type: functional
# EXPERIMENTAL_PARAMETERS: ip
Transform log10 | Measure ED50 | Unit mg/kg

Worked cases, log10 ED50 given:
Ask | Could you tell me which log10 ED50 is on file for "CCOC(=O)C(=O)Nc1cccc(C)c1C#N" ?
Reply | 0.72

Ask | Query (compound): "CCOC(=O)C(=O)Nc1cccc(N(C)C(C)C)c1C#N" ; field requested: log10 ED50
Reply | -0.52

Ask | Which value of log10 ED50 has been reported for "CCOC(=O)C(=O)Nc1cccc(N(C)C)c1C#N" in the records?
Reply | -0.70

---
Ask | Quick one: log10 ED50 for "CCOC(=O)C(=O)Nc1cccc(F)c1C#N" ?
Reply | 0.08

Ask | Quick check: log10 ED50 of "CCOC(=O)C(=O)Nc1cccc(OC)c1C#N" ?
Reply | 0.72

Ask | log10 ED50 lookup needed for "CCOC(=O)C(=O)Nc1ccc(N)cc1C#N" , thanks.
Reply | 0.00

Ask | What value of measured log10 ED50 is listed for "CCOC(=O)C(=O)Nc1ccc(C(F)(F)F)c(N2CCOCC2)c1C#N" ?
Reply | -1.00

Ask | Suppose we examine the compound "CCCNc1cccc(NC(=O)C(=O)OCC)c1C#N" ; what log10 ED50 value has been reported?
Reply | -0.30

Ask | Item under review: "CCNc1cccc(NC(=O)C(=O)OCC)c1C#N" . Reported log10 ED50?
Reply | -1.52

Ask | Which log10 ED50 value belongs to "CCOC(=O)C(=O)Nc1cccc(N(CC)CC)c1C#N" ?
Reply | -0.15

Ask | What log10 ED50 value was documented for this compound, "CCOC(=O)C(=O)Nc1ccccc1C#N" ?
Reply | -0.40

---

# System: Rattus norvegicus
# ASSAY_NAME: Antiallergic property in passive cutaneous anaphylaxis (PCA) test in rats upon intraperitoneal administration
# Type: functional
# EXPERIMENTAL_PARAMETERS: ip
Here the recorded ED50 is given for each entry.
Express it in mg/kg; write the number only.

Guide cases for ED50, answers given:
Ask | What ED50 value was documented for this compound, "CCOC(=O)C(=O)Nc1cccc(C(=O)OC)c1C#N" ?
Reply | 1.2

Ask | Could you tell me which ED50 is on file for "CCOC(=O)C(=O)Nc1cccc([N+](=O)[O-])c1C#N" ?
Reply | 0.4

In the following, a different compound is considered.
Ask | Name the reported ED50 value associated with the compound "CCOC(=O)C(=O)Nc1cccc(N2CCCCC2)c1C#N"
Reply | 2.2

---

# Tested on: Rattus norvegicus
# ASSAY_NAME: Antiallergic property in passive cutaneous anaphylaxis (PCA) test in rats upon intraperitoneal administration
# Format: functional
# EXPERIMENTAL_PARAMETERS: ip
PROPERTY_NAME: ED50
For clarity, give the value followed by its unit.

Some compounds with known ED50 results, for comparison:
Ask | Any idea what ED50 was measured for "CCOC(=O)C(=O)Nc1cccc(N(C)CC)c1C#N" ?
Reply | 0.3 mg/kg

Ask | Would you mind telling me what ED50 value was observed for "CCOC(=O)C(=O)Nc1cc(N(C)C)ccc1C#N" ?
Reply | 1.9 mg/kg

Ask | Which ED50 is listed for O=C([O-])c1cc(=O)c2c(OCC(O)COc3cccc4oc(C(=O)[O-])cc(=O)c34)cccc2o1.[Na+].[Na+] [CROMOLYN SODIUM] ?
Reply | 8 mg/kg

--- query ---
Ask | // returns reported ED50 for input "CCOC(=O)C(=O)Nc1ccc(N(C)C)cc1C#N"
Reply | 1 mg/kg
